System: C.krusei CCM 8271
Assay: MIC, broth microdilution
Type: cell-based, Candida krusei
Details: C.krusei CCM 8271, 24 h
Text: Escherichia coli (PCM 2057 = ATCC 25922), Staphylococcus aureus (PCM 2054 = ATCC 25923), Staphylococcus epidermidis (PCM 2118 = ATCC 14990), Bacillus subtilis (PCM 2224 = ATCC 9799), Bacillus cereus (PCM 482 = ATCC 10702) and Pseudomonas aeruginosa (PCM 499 = ATCC 10145) were obtained from the Polish Collection of Microorganisms. […]
Where a SMILES comes first, the peptide text is derived from it. [ ]: non-standard residue; d: D form. The star is where a group is joined. Palmitoyl = CCCCCCCCCCCCCCCC(=O)*; Lauroyl = CCCCCCCCCCCC(=O)*; AEEA = NCCOCCOCC(=O)O; βAla = NCCC(=O)O
observable: MIC100 (µg/mL)

compound: CCCCCCCCCCCCCCCC(=O)NCCC(=O)N[C@@H](Cc1c[nH]cn1)C(=O)NCCOCCOCC(=O)N[C@H](C(=O)N[C@@H](CCCCN)C(=O)N[C@@H](CCCCN)C(=O)N[C@H](C(=O)N[C@@H](CC(C)C)C(=O)N[C@@H](CO)C(=O)N[C@@H](CCCCN)C(=O)N[C@H](C(=O)N[C@@H](CCCCN)C(=O)N[C@@H](CCCCN)C(=O)N[C@@H](CC(C)C)C(=O)N[C@@H](CC(C)C)C(N)=O)[C@@H](C)CC)[C@@H](C)CC)[C@@H](C)CC [C16-CAR-PEG-DK5] ({Palmitoyl-βAla}-H[AEEA]IKKILSKIKKLL-NH2)
reported.measurement: 12.5

compound: CCCCCCCCCCCC(=O)NCCC(=O)N[C@@H](Cc1c[nH]cn1)C(=O)NCCOCCOCC(=O)N[C@H](C(=O)N[C@@H](CCCCN)C(=O)N[C@@H](CCCCN)C(=O)N[C@H](C(=O)N[C@@H](CC(C)C)C(=O)N[C@@H](CO)C(=O)N[C@@H](CCCCN)C(=O)N[C@H](C(=O)N[C@@H](CCCCN)C(=O)N[C@@H](CCCCN)C(=O)N[C@@H](CC(C)C)C(=O)N[C@@H](CC(C)C)C(N)=O)[C@@H](C)CC)[C@@H](C)CC)[C@@H](C)CC [C12-CAR-PEG-DK5] ({Lauroyl-βAla}-H[AEEA]IKKILSKIKKLL-NH2)
reported.measurement: 12.5

* * *

Tested on: S. epidermidis PCM 2118
Assay: MIC, broth microdilution
Type: cell-based, Staphylococcus epidermidis
Settings: S. epidermidis PCM 2118, 24 h
Where a SMILES comes first, the peptide text is derived from it. [ ]: non-standard residue; d: D form. The star is where a group is joined. Pentanoyl = CCCCC(=O)*; AEEA = NCCOCCOCC(=O)O; Ahx = NCCCCCC(=O)O; βAla = NCCC(=O)O
The reader will find reported MIC100 values listed item by item below.
observable: MIC100 (µg/mL)

compound: CCCCC(=O)NCCC(=O)N[C@@H](Cc1c[nH]cn1)C(=O)NCCOCCOCC(=O)N[C@H](C(=O)N[C@@H](CCCCN)C(=O)N[C@@H](CCCCN)C(=O)N[C@H](C(=O)N[C@@H](CC(C)C)C(=O)N[C@@H](CO)C(=O)N[C@@H](CCCCN)C(=O)N[C@H](C(=O)N[C@@H](CCCCN)C(=O)N[C@@H](CCCCN)C(=O)N[C@@H](CC(C)C)C(=O)N[C@@H](CC(C)C)C(N)=O)[C@@H](C)CC)[C@@H](C)CC)[C@@H](C)CC [C5-CAR-PEG-DK5] ({Pentanoyl-βAla}-H[AEEA]IKKILSKIKKLL-NH2)
reported.measurement: 6.25
--
compound: CC[C@H](C)[C@H](NC(=O)COCCOCCNC(=O)[C@H](Cc1c[nH]cn1)NC(=O)CCNC(=O)CCCCCN)C(=O)N[C@@H](CCCCN)C(=O)N[C@@H](CCCCN)C(=O)N[C@H](C(=O)N[C@@H](CC(C)C)C(=O)N[C@@H](CO)C(=O)N[C@@H](CCCCN)C(=O)N[C@H](C(=O)N[C@@H](CCCCN)C(=O)N[C@@H](CCCCN)C(=O)N[C@@H](CC(C)C)C(=O)N[C@@H](CC(C)C)C(N)=O)[C@@H](C)CC)[C@@H](C)CC [AHX-CAR-PEG-DK5] (H-[Ahx][βAla]H[AEEA]IKKILSKIKKLL-NH2)
reported.measurement: 6.25

* * *

Tested on: S. aureus USA300
Type: cell-based, Staphylococcus aureus
Where a SMILES comes first, the peptide text is derived from it. [ ]: non-standard residue; d: D form. The star is where a group is joined. Lauroyl = CCCCCCCCCCCC(=O)*; AEEA = NCCOCCOCC(=O)O; βAla = NCCC(=O)O
observable: MIC100 (µg/mL)

compound: CCCCCCCCCCCC(=O)NCCC(=O)N[C@@H](Cc1c[nH]cn1)C(=O)NCCOCCOCC(=O)N[C@H](C(=O)N[C@@H](CCCCN)C(=O)N[C@@H](CCCCN)C(=O)N[C@H](C(=O)N[C@@H](CC(C)C)C(=O)N[C@@H](CO)C(=O)N[C@@H](CCCCN)C(=O)N[C@H](C(=O)N[C@@H](CCCCN)C(=O)N[C@@H](CCCCN)C(=O)N[C@@H](CC(C)C)C(=O)N[C@@H](CC(C)C)C(N)=O)[C@@H](C)CC)[C@@H](C)CC)[C@@H](C)CC [C12-CAR-PEG-DK5] ({Lauroyl-βAla}-H[AEEA]IKKILSKIKKLL-NH2)
measured.target: S. aureus USA300
reported.measurement: 12.5

* * *

Tested on: B. subtilis PCM 2224
Assay: MIC, broth microdilution
Type: cell-based, Bacillus subtilis
Details: B. subtilis PCM 2224, 24 h
Where a SMILES comes first, the peptide text is derived from it. [ ]: non-standard residue; d: D form. The star is where a group is joined. Lauroyl = CCCCCCCCCCCC(=O)*; Pentanoyl = CCCCC(=O)*; AEEA = NCCOCCOCC(=O)O; Ahx = NCCCCCC(=O)O; βAla = NCCC(=O)O

compound: CCCCC(=O)NCCC(=O)N[C@@H](Cc1c[nH]cn1)C(=O)NCCOCCOCC(=O)N[C@H](C(=O)N[C@@H](CCCCN)C(=O)N[C@@H](CCCCN)C(=O)N[C@H](C(=O)N[C@@H](CC(C)C)C(=O)N[C@@H](CO)C(=O)N[C@@H](CCCCN)C(=O)N[C@H](C(=O)N[C@@H](CCCCN)C(=O)N[C@@H](CCCCN)C(=O)N[C@@H](CC(C)C)C(=O)N[C@@H](CC(C)C)C(N)=O)[C@@H](C)CC)[C@@H](C)CC)[C@@H](C)CC [C5-CAR-PEG-DK5] ({Pentanoyl-βAla}-H[AEEA]IKKILSKIKKLL-NH2)
MIC100: 6.25 µg/mL

compound: CCCCCCCCCCCCCCCC(=O)NCCC(=O)N[C@@H](Cc1c[nH]cn1)C(=O)O [Compound C16-CAR, CH3(CH2)14C(O)-βAH]
MIC100: Non-inhibitory

compound: CCCCC(=O)NCCC(=O)N[C@@H](Cc1c[nH]cn1)C(=O)O [Compound C5-CAR, CH3(CH2)3C(O)-βAH]
MIC100: Non-inhibitory

compound: CCCCCCCCCCCC(=O)N[C@H](C(=O)N[C@@H](CCCCN)C(=O)N[C@@H](CCCCN)C(=O)N[C@H](C(=O)N[C@@H](CC(C)C)C(=O)N[C@@H](CO)C(=O)N[C@@H](CCCCN)C(=O)N[C@H](C(=O)N[C@@H](CCCCN)C(=O)N[C@@H](CCCCN)C(=O)N[C@@H](CC(C)C)C(=O)N[C@@H](CC(C)C)C(N)=O)[C@@H](C)CC)[C@@H](C)CC)[C@@H](C)CC [Compound C12-DK5] (Lauroyl-IKKILSKIKKLL-NH2)
MIC100: 0.78 µg/mL

compound: CC[C@H](C)[C@H](NC(=O)COCCOCCNC(=O)[C@H](Cc1c[nH]cn1)NC(=O)CCNC(=O)CCCCCN)C(=O)N[C@@H](CCCCN)C(=O)N[C@@H](CCCCN)C(=O)N[C@H](C(=O)N[C@@H](CC(C)C)C(=O)N[C@@H](CO)C(=O)N[C@@H](CCCCN)C(=O)N[C@H](C(=O)N[C@@H](CCCCN)C(=O)N[C@@H](CCCCN)C(=O)N[C@@H](CC(C)C)C(=O)N[C@@H](CC(C)C)C(N)=O)[C@@H](C)CC)[C@@H](C)CC [AHX-CAR-PEG-DK5] (H-[Ahx][βAla]H[AEEA]IKKILSKIKKLL-NH2)
MIC100: 6.25 µg/mL

compound: CC[C@H](C)[C@H](NC(=O)COCCOCCNC(=O)[C@H](Cc1c[nH]cn1)NC(=O)CCN)C(=O)N[C@@H](CCCCN)C(=O)N[C@@H](CCCCN)C(=O)N[C@H](C(=O)N[C@@H](CC(C)C)C(=O)N[C@@H](CO)C(=O)N[C@@H](CCCCN)C(=O)N[C@H](C(=O)N[C@@H](CCCCN)C(=O)N[C@@H](CCCCN)C(=O)N[C@@H](CC(C)C)C(=O)N[C@@H](CC(C)C)C(N)=O)[C@@H](C)CC)[C@@H](C)CC [CAR-PEG-DK5] (H-[βAla]H[AEEA]IKKILSKIKKLL-NH2; N-terminus and C-terminus assumed)
MIC100: 3.9 µg/mL
